These data points were gathered from ChEMBL document CHEMBL4138123.

Tested on: NCI-H23
assay_explanation: Cytotoxicity against human NCI-H23 cells assessed as growth inhibition after 48 hrs by sulforhodamine B assay
Format: functional
run_parameters: NCI-H23, 48 h
What TGI was measured for each of the following?
# value in µM; strip the unit string

Ask: Let me know recorded TGI for COc1ccc(-c2cc(/C=C/C(=O)c3ccc(N)cc3)[nH]n2)cc1 , thanks.
Reply: 13.1

Ask: Fill in TGI for record COc1ccc(C(=O)/C=C/c2cc(-c3ccc(OC)c(OC)c3)n[nH]2)cc1OC
Reply: 5.7

Ask: Fill in TGI for record COc1ccc(-c2cc(/C=C/C(=O)c3ccc(N)cc3)[nH]n2)cc1OC
Reply: 19.3

Ask: State its TGI: COc1cc(C(=O)/C=C/c2cc(-c3cc(OC)c(OC)c(OC)c3)n[nH]2)cc(OC)c1OC
Reply: 9.9

###

Tested on: MDA-MB-435
assay_explanation: Cytotoxicity against human MDA-MB-435 cells assessed as cell growth at 1 uM after 48 hrs by sulforhodamine B assay relative to control
Format: functional
run_parameters: MDA-MB-435, 48 h, read-out: Activity
property_measured: growth at 1 µM (%)
Supply the numeric figure in %, leaving out any unit text.

Ask: Give a short answer stating reported growth at 1 µM for COc1cc(-c2cc(/C=C/C(=O)c3ccc(F)c(F)c3)[nH]n2)cc(OC)c1OC .
Reply: 88

Ask: Tell me growth at 1 µM reported for COc1ccc(C(=O)/C=C/c2cc(-c3cc(OC)c(OC)c(OC)c3)n[nH]2)cc1
Reply: 92

Ask: Supply recorded growth at 1 µM for COc1ccc(-c2cc(/C=C/C(=O)c3ccc(OC)c(OC)c3)[nH]n2)cc1 here.
Reply: 91

###

Tested on: U-251
assay_explanation: Cytotoxicity against human U251 cells assessed as cell growth at 10 uM after 48 hrs by sulforhodamine B assay relative to control
Assay type: functional
run_parameters: U-251, 48 h, read-out: Activity
For each of the compounds below, state its growth at 10 µM.
Report field: quantity (unit follows the number).

Ask: // fetch growth at 10 µM given entry COc1ccc(C(=O)/C=C/c2cc(-c3cc(OC)c(OC)c(OC)c3)n[nH]2)cc1OC
Reply: -100%

Ask: Entry COc1ccc(-c2cc(/C=C/C(=O)c3ccc(N)cc3)[nH]n2)cc1 needs its growth at 10 µM filled in; supply it.
Reply: -94%

Ask: Could you please provide reported growth at 10 µM for COc1ccc(-c2cc(/C=C/C(=O)c3cc(OC)c(OC)c(OC)c3)[nH]n2)cc1OC ? Thanks!
Reply: -97%

Ask: Please supply the value of reported growth at 10 µM for the item COc1ccc(C(=O)/C=C/c2cc(-c3cc(OC)c(OC)c(OC)c3)n[nH]2)cc1
Reply: -98%

###

System: ACHN
assay_explanation: Cytotoxicity against human ACHN cells assessed as cell growth at 0.01 uM after 48 hrs by sulforhodamine B assay relative to control
Assay type: functional
run_parameters: read-out: Activity
property_measured: growth at 0.01 µM (%)
API: value field is a number in %; no unit string.

Ask: Specify measured growth at 0.01 µM for COc1ccc(-c2cc(/C=C/C(=O)c3cc(OC)c(OC)c(OC)c3)[nH]n2)cc1OC .
Reply: 95

Ask: Please list growth at 0.01 µM recorded for the compound COc1ccc(C(=O)/C=C/c2cc(-c3ccc4c(c3)OCO4)n[nH]2)cc1OC
Reply: 101

Ask: Dear colleague, please send me the reported growth at 0.01 µM for COc1cc(C(=O)/C=C/c2cc(-c3ccc4c(c3)OCO4)n[nH]2)cc(OC)c1OC when you can.
Reply: 102

Ask: Tell me measured growth at 0.01 µM for COc1ccc(-c2cc(/C=C/C(=O)c3ccc(N)cc3)[nH]n2)cc1OC please.
Reply: 93

###

Consider the following compounds; for each one, report its growth at 1 µM.
Tested on: MOLT-4
assay_explanation: Cytotoxicity against human MOLT4 cells assessed as cell growth at 1 uM after 48 hrs by sulforhodamine B assay relative to control
Type: functional
run_parameters: MOLT-4, 48 h, read-out: Activity
Numeric answer only, unit % assumed.

Ask: For COc1ccc(-c2cc(/C=C/C(=O)c3ccc(N)cc3)[nH]n2)cc1 , write its growth at 1 µM.
Reply: 80

Ask: Quickly give me recorded growth at 1 µM for COc1cc2c(cc1OC)C(=O)/C(=C/c1cc(-c3ccc4c(c3)OCO4)n[nH]1)C2
Reply: 97

Ask: Write down growth at 1 µM measured for item COc1ccc(-c2cc(/C=C/C(=O)c3cc(OC)c(OC)c(OC)c3)[nH]n2)cc1OC
Reply: 69

###

Would you kindly list TGI for each of these compounds?
System: NCI-H522
assay_explanation: Cytotoxicity against human NCI-H522 cells assessed as growth inhibition after 48 hrs by sulforhodamine B assay
Format: functional
run_parameters: NCI-H522, 48 h

Ask: Please look at this compound and report its TGI: COc1ccc(-c2cc(/C=C/C(=O)c3cc(OC)c(OC)c(OC)c3)[nH]n2)cc1OC
Reply: 2680 nM

Ask: Please give the documented TGI of COc1cc(C(=O)/C=C/c2cc(-c3cc(OC)c(OC)c(OC)c3)n[nH]2)cc(OC)c1OC
Reply: 1700 nM

Ask: Using known records, supply TGI for COc1ccc(-c2cc(/C=C/C(=O)c3ccc(N)cc3)[nH]n2)cc1OC
Reply: 3220 nM

Ask: Report TGI, nothing else, for this compound: COc1ccc(-c2cc(/C=C/C(=O)c3ccc(N)cc3)[nH]n2)cc1
Reply: 2910 nM

###

Test system: OVCAR-4
assay_explanation: Cytotoxicity against human OVCAR4 cells assessed as cell growth at 1 uM after 48 hrs by sulforhodamine B assay relative to control
Format: functional
run_parameters: OVCAR-4, 48 h, read-out: Activity
property_measured: growth at 1 µM (%)
Give the value in % but do not write % after it.

Ask: Give growth at 1 µM for COc1cc(C(=O)/C=C/c2cc(-c3cc(OC)c(OC)c(OC)c3)n[nH]2)cc(OC)c1OC
Reply: 79

Ask: Respond only with growth at 1 µM recorded for COc1ccc(-c2cc(/C=C/C(=O)c3ccc(N)cc3)[nH]n2)cc1OC
Reply: 69

Ask: Note down growth at 1 µM recorded for COc1cc(-c2cc(/C=C/C(=O)c3ccc4c(c3)OCO4)[nH]n2)cc(OC)c1OC
Reply: 82

###

System: HL-60(TB)
assay_explanation: Cytotoxicity against human HL-60(TB) cells assessed as cell growth at 1 uM after 48 hrs by sulforhodamine B assay relative to control
Type: functional
run_parameters: HL-60, 48 h, read-out: Activity
I'd be grateful if you could share measured growth at 1 µM for these entries.
Express it in %; write the number only.

Ask: For the compound COc1ccc(C(=O)/C=C/c2cc(-c3cc(OC)c(OC)c(OC)c3)n[nH]2)cc1 , give its measured growth at 1 µM value.
Reply: 99

Ask: Let me know recorded growth at 1 µM for COc1ccc(-c2cc(/C=C/C(=O)c3ccc(N)cc3)[nH]n2)cc1 , thanks.
Reply: 61

Ask: Query growth at 1 µM for COc1cc(-c2cc(/C=C/C(=O)c3ccc(F)c(F)c3)[nH]n2)cc(OC)c1OC
Reply: 101

Ask: State its growth at 1 µM for this compound: COc1cc(C(=O)/C=C/c2cc(-c3cc(OC)c(OC)c(OC)c3)n[nH]2)cc(OC)c1OC
Reply: 81
